Tested on: KM12 colon
Assay: NCI-60 one-dose screen, 48 h (100 = growth as untreated, 0 = no growth, -100 = all killed)
Settings: 10 µM
Experimental: Growth inhibition of the KM12 human tumor cell line is measured as a screen for anti-cancer activity. Cells are grown in 96 well plates and exposed to the test compound for 48 hours. Compounds are tested at a single concentration, which is 10^-5 M for most compounds. The reported endpoint is percent growth (GI% or GIPRCNT), where numbers from 0 - 100% represent growth inhibition, and numbers from -100% - 0 represent cell death. For example, a value of 40 represents 60% growth inhibition. […]
About 83,000 compounds went through this panel and 20% of them were active in at least one assay; those are over-represented in the sample as a whole.
Rule: measured growth below 20% gets yes; anything equal to or greater than 20% gets no.

{"molecule": "COc1ccc(C2NC(=S)NC(C)=C2C(=O)OC(C)C)cc1OC (stereo not given)", "assayed.target": "KM12 colon", "label.value": "no"}
{"molecule": "O=C(NO)c1ccc(CNC(=O)[C@H]2Cc3c([nH]c4ccccc34)[C@H](c3ccccc3)N2)cc1", "assayed.target": "KM12 colon", "label.value": "no"}
{"molecule": "O=C(CNc1nc(-c2ccccc2)cs1)Nc1cccc(Cl)c1", "assayed.target": "KM12 colon", "label.value": "no"}
{"molecule": "Cc1nc(Nc2nc(C)c3ccc(OCCN4CCOCC4)cc3n2)[nH]c(=O)c1C", "assayed.target": "KM12 colon", "label.value": "yes"}
{"molecule": "CCCCCc1ccc(S(=O)(=O)N(C(C)=O)c2cc(-c3csc(N(C)C(C)=O)n3)ccc2N2CCN(C)CC2)cc1", "assayed.target": "KM12 colon", "label.value": "yes"}
